- targetDesc: Dihydrofolate reductase (Homo sapiens, UniProt P00374)
- Sequence (P00374 whole entry): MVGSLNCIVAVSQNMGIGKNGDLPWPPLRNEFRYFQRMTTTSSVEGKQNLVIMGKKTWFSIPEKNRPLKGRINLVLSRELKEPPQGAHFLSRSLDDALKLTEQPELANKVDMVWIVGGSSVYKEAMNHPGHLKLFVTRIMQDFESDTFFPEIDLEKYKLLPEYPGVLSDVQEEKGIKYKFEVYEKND
- measurementNotes: Inhibition of human recombinant DHFR
pIC50: −log10 of the molar value.
readout: pIC50

Each of the following entries comes with a recorded value; kindly state pIC50 for each.
1. CCC1c2ccccc2C=NN1C(=O)/C=C/c1cc(Cc2cnc(N)nc2N)cc(OC)c1OC (centres undefined)
2. COC(=O)C(C)(C)C1c2ccccc2C=NN1C(=O)/C=C/c1cc(Cc2cnc(N)nc2N)cc(OC)c1OC (centres undefined)
3. COc1cc(Cc2cnc(N)nc2N)cc(/C=C/C(=O)N2N=Cc3ccccc3C2c2ccccc2)c1OCCN1CCOCC1 (centres undefined)
4. CCCCC1c2ccccc2C=NN1C(=O)/C=C/c1cc(Cc2cnc(N)nc2N)cc(OC)c1OC (centres undefined)
5. COc1cc(Cc2cnc(N)nc2N)cc(/C=C/C(=O)N2N=Cc3ccccc3C2CCCO)c1OC (centres undefined)
6. COc1cc(Cc2cnc(N)nc2N)cc(/C=C/C(=O)N2N=Cc3ccccc3C2c2ccccc2)c1OC (centres undefined)

1. < 4.57
2. 3.09
3. < 4.68
4. < 4.70
5. < 4.60
6. < 4.80

----------
Kindly state Ratio IC50 for each of the entries shown.
- measurementNotes: Selectivity ratio of IC50 for human recombinant DHFR to IC50 for histidine-tagged Bacillus anthracis Sterne recombinant DHFR

The following compounds have reported results that may help.
{"columns": ["compound", "Ratio IC50"],
 "data": [
  ["COc1cc(Cc2cnc(N)nc2N)cc(/C=C/C(=O)N2N=Cc3ccccc3C2c2ccc(C)cc2)c1OC (stereo unspecified)", "> 127"],
  ["CCCCC1c2ccccc2C=NN1C(=O)/C=C/c1cc(Cc2cnc(N)nc2N)cc(OC)c1OC (stereo unspecified)", "> 118"],
  ["CCC1c2ccccc2C=NN1C(=O)/C=C/c1cc(Cc2cnc(N)nc2N)cc(OC)c1OC (stereo unspecified)", "> 281"],
  ["COc1cc(Cc2cnc(N)nc2N)cc(/C=C/C(=O)N2N=Cc3ccccc3C2C2CCCC2)c1OC (stereo unspecified)", "> 110"],
  ["COc1cc(Cc2cnc(N)nc2N)cc(/C=C/C(=O)N2N=Cc3ccccc3C2c2ccccc2)c1OC (stereo unspecified)", "> 348"]
]}

Given the entry CCCC1c2ccccc2C=NN1C(=O)/C=C/c1cc(Cc2cnc(N)nc2N)cc(O)c1OC (stereo unspecified) , report its measured Ratio IC50.
2040

----------
- measurementNotes: Inhibition of Bacillus cereus recombinant DHFR expressed in Escherichia coli BL21(DE3) assessed as enzyme-dependent NADPH consumption
What IC50 was measured for each of the following?
Numbers only, in nM.

Some entries whose results are on file:
{"columns": ["compound", "unitsSymbol", "IC50"],
 "data": [
  ["COc1cc(Cc2cnc(N)nc2N)cc(/C=C/C(=O)N2N=Cc3ccccc3C2c2ccc(C)cc2)c1OC (stereo unspecified)", "nM", 270],
  ["COc1cc(Cc2cnc(N)nc2N)cc(/C=C/C(=O)N2N=Cc3ccccc3C2C2CCCC2)c1OC (stereo unspecified)", "nM", 270],
  ["COc1cc(Cc2cnc(N)nc2N)cc(/C=C/C(=O)N2N=Cc3ccccc3C2CCCO)c1OC (stereo unspecified)", "nM", 270],
  ["COc1cc(Cc2cnc(N)nc2N)cc(CCC(=O)N2N=Cc3ccccc3C2C)c1OC (stereo unspecified)", "nM", 37000]
]}

Need IC50 for each of these compounds.
1. COc1cc(Cc2cnc(N)nc2N)cc(/C=C/C(=O)N2N=Cc3ccccc3C2C2CCCCC2)c1OC (stereo unspecified)
2. COc1cc(Cc2cnc(N)nc2N)cc(/C=C/C(=O)N2Cc3ccccc3C=N2)c1OC
3. CCCC1c2ccccc2C=NN1C(=O)/C=C/c1cc(Cc2cnc(N)nc2N)cc(O)c1OC (stereo unspecified)
4. CCCCC1c2ccccc2C=NN1C(=O)/C=C/c1cc(Cc2cnc(N)nc2N)cc(OC)c1OC (stereo unspecified)
5. CCC1c2ccccc2C=NN1C(=O)/C=C/c1cc(Cc2cnc(N)nc2N)cc(OC)c1OC (stereo unspecified)
6. COc1cc(Cc2cnc(N)nc2N)cc(/C=C/C(=O)N2N=Cc3ccccc3C2c2ccccc2)c1OC (stereo unspecified)
7. COC(=O)C(C)(C)C1c2ccccc2C=NN1C(=O)/C=C/c1cc(Cc2cnc(N)nc2N)cc(OC)c1OC (stereo unspecified)

270
37000
270
270
270
270
270

----------
- System: Bacillus anthracis
- measurementNotes: Antibacterial activity against Bacillus anthracis Ames (NR-411) after 16 hrs by modified alamar blue microdilution broth assay
- Assay type: functional
- experimentalSetup: Ames NR-411, 16 h
Provide the recorded MIC for the entries that follow.

{"columns": ["molecule", "readout", "obsValue"],
 "data": [
  ["COc1cc(Cc2cnc(N)nc2N)cc(/C=C/C(=O)N2N=Cc3ccccc3C2C2CCCCC2)c1OC (stereo not given)", "MIC", "≤ 12.8 mg/L"],
  ["CCCCC1c2ccccc2C=NN1C(=O)/C=C/c1cc(Cc2cnc(N)nc2N)cc(OC)c1OC (stereo not given)", "MIC", "≤ 12.8 mg/L"],
  ["COc1cc(Cc2cnc(N)nc2N)cc(/C=C/C(=O)N2N=Cc3ccccc3C2c2ccccc2)c1OC (stereo not given)", "MIC", "> 51.2 mg/L"],
  ["COc1cc(Cc2cnc(N)nc2N)cc(/C=C/C(=O)N2N=Cc3ccccc3C2C2CCCC2)c1OC (stereo not given)", "MIC", "≤ 12.8 mg/L"],
  ["COc1cc(Cc2cnc(N)nc2N)cc(/C=C/C(=O)N2N=Cc3ccccc3C2CCCO)c1OC (stereo not given)", "MIC", "> 102 mg/L"]
]}

// each molecule listed below needs its MIC
1. COc1cc(Cc2cnc(N)nc2N)cc(/C=C/C(=O)N2N=Cc3ccccc3C2c2ccccc2)c1OCCN1CCOCC1 (stereo not given)
2. COc1cc(Cc2cnc(N)nc2N)cc(/C=C/C(=O)N2N=Cc3ccccc3C2c2ccc(C)cc2)c1OC (stereo not given)

["≤ 25.6 mg/L", "≤ 51.2 mg/L"]

Lab note: each molecule below needs its MIC filled in.
1. CCC1c2ccccc2C=NN1C(=O)/C=C/c1cc(Cc2cnc(N)nc2N)cc(OC)c1OC (stereo not given)
2. COc1cc(Cc2cnc(N)nc2N)cc(CCC(=O)N2N=Cc3ccccc3C2C)c1OC (stereo not given)
3. CCCC1c2ccccc2C=NN1C(=O)/C=C/c1cc(Cc2cnc(N)nc2N)cc(O)c1OC (stereo not given)

≤ 25.6 mg/L
≤ 64 mg/L
≤ 16 mg/L

----------
- targetDesc: Dihydrofolate reductase (Homo sapiens)
- measurementNotes: Inhibition of human recombinant DHFR
I'd be grateful if you could share measured IC50 for these entries.

Completed entries (count: 3):
{"columns": ["molecule", "IC50"],
 "data": [
  ["COc1ncc(C2c3ccccc3C=NN2C(=O)/C=C/c2cc(Cc3cnc(N)nc3N)cc(OC)c2OC)c(OC)n1 (stereo unspecified)", "> 22 µM"],
  ["COc1cc(Cc2cnc(N)nc2N)cc(/C=C/C(=O)N2N=Cc3ccccc3C2c2ccccc2CN(C)C)c1OC (stereo unspecified)", "> 42 µM"],
  ["COc1cc(Cc2cnc(N)nc2N)cc(/C=C/C(=O)N2N=Cc3ccccc3C2c2ccc(C)cc2)c1OC (stereo unspecified)", "> 19 µM"]
]}

Dear reader, for each entry below, please note its IC50.
1. COc1cc(Cc2cnc(N)nc2N)cc(/C=C/C(=O)N2N=Cc3ccccc3C2c2ccc(CO)cc2)c1OC (stereo unspecified)
2. COc1cc(Cc2cnc(N)nc2N)cc(/C=C/C(=O)N2N=Cc3ccccc3C2c2ccc(CO)cc2)c1O (stereo unspecified)
3. COc1cc(Cc2cnc(N)nc2N)cc(CCC(=O)N2N=Cc3ccccc3C2C)c1OC (stereo unspecified)

1. > 23 µM
2. > 24 µM
3. > 28 µM

----------
- Test system: Bacillus anthracis
- measurementNotes: Inhibition of histidine-tagged Bacillus anthracis Sterne recombinant DHFR expressed in Escherichia coli BL21 Star (DE3)pLysS up to 3 mins
- experimentalSetup: BL21, 0.05 h
readout: pIC50
One number for each entry, as −log10 of the molar value.

Look over these answered cases.
{"columns": ["molecule", "pIC50"],
 "data": [
  ["COc1cc(Cc2cnc(N)nc2N)cc(/C=C/C(=O)N2N=Cc3ccccc3C2c2ccccc2CN(C)C)c1OC (stereo unspecified)", 6.40],
  ["COC(=O)C(C)(C)C1c2ccccc2C=NN1C(=O)/C=C/c1cc(Cc2cnc(N)nc2N)cc(OC)c1OC (stereo unspecified)", 6.52],
  ["COc1cc(Cc2cnc(N)nc2N)cc(/C=C/C(=O)N2N=Cc3ccccc3C2c2ccc(CO)cc2)c1OC (stereo unspecified)", 7.01],
  ["COc1cc(Cc2cnc(N)nc2N)cc(CCC(=O)N2N=Cc3ccccc3C2C)c1OC (stereo unspecified)", 7.04],
  ["CCCCC1c2ccccc2C=NN1C(=O)/C=C/c1cc(Cc2cnc(N)nc2N)cc(OC)c1OC (stereo unspecified)", 6.77]
]}

Recorded pIC50 for COc1cc(Cc2cnc(N)nc2N)cc(/C=C/C(=O)N2N=Cc3ccccc3C2C2CCCC2)c1OC (stereo unspecified) , please?
6.70
